Below: a set of entries, each annotated with reported IC50.
- testedSystem: T1, full length human LILRB2 stably expressed on HEK293 cells (human, UniProt Q8N423 22-597)
- T1 construct: whole, on cells; also called HEK293_LILRB2
- T1 sequence (Q8N423 22-597): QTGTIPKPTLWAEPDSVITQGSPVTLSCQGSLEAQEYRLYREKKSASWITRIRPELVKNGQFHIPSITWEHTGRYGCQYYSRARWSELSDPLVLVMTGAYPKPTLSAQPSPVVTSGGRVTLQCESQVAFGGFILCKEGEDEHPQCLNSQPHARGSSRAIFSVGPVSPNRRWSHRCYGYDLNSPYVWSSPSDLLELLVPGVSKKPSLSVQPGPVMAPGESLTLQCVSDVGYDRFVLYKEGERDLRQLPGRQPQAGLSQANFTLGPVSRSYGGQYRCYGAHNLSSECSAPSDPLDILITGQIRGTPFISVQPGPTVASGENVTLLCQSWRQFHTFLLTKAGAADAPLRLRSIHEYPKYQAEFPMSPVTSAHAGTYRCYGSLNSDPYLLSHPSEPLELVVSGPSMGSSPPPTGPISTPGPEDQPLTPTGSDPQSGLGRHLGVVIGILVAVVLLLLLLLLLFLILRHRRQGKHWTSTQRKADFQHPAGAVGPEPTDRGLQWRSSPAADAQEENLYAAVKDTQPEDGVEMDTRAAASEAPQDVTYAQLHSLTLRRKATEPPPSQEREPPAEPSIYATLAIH
- assayNotes: competition flow cytometry, inhibition of SEMA4A-hFc-AF647 binding to HEK293_LILRB2 cells
The reply should contain only the number, in µg/mL.

B2-15 (antibody, V domains shown, also called B-15; B2-15_HC) VH: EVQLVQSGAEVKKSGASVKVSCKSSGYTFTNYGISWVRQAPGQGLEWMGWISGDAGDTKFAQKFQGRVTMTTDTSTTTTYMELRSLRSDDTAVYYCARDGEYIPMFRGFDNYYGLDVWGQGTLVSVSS VL: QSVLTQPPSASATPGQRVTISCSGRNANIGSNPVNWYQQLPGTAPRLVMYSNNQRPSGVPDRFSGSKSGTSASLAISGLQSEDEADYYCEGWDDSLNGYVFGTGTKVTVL    0.482

Request: Please give the measured IC50 for this binder: B2-17 (antibody, V domains shown, also called B2-17_HC; B2-17_LC) VH: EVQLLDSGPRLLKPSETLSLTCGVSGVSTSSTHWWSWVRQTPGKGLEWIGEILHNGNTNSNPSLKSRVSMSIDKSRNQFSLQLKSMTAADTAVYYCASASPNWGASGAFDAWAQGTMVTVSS VL: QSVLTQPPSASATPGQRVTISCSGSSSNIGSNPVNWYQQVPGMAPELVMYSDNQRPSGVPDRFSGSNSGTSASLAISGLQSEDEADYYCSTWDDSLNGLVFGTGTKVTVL
Result: 0.657

Request: Another binder to check: B2-16 (antibody, V domains shown, also called B2-16_HC; B2-16_LC) VH: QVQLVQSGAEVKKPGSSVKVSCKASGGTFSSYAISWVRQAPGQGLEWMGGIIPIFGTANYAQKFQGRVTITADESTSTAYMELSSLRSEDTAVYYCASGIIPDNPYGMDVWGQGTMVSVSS VL: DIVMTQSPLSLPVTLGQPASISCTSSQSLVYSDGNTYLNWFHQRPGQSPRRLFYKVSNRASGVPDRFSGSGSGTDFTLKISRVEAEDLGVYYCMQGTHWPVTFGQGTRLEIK
Result: 3.19

Request: Another binder to check: B2-7 (antibody, V domains shown, also called B2-7_HC; B2-7_LC) VH: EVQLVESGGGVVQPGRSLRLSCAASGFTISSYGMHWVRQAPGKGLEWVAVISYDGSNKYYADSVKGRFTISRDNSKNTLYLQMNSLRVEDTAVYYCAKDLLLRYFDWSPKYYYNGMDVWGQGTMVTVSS VL: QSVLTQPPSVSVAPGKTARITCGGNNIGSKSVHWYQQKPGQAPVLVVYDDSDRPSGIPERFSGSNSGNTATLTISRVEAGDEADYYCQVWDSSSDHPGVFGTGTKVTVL
Result: 2.66
